Target: T1, recombinant human TfR-1, His-tagged (Sino Biological 11020-H07H) (human, UniProt P02786 89-760)
T1 construct: bought; His-tagged; also called hTfR1; hTfR-1
T1 sequence (P02786 89-760 limits assumed): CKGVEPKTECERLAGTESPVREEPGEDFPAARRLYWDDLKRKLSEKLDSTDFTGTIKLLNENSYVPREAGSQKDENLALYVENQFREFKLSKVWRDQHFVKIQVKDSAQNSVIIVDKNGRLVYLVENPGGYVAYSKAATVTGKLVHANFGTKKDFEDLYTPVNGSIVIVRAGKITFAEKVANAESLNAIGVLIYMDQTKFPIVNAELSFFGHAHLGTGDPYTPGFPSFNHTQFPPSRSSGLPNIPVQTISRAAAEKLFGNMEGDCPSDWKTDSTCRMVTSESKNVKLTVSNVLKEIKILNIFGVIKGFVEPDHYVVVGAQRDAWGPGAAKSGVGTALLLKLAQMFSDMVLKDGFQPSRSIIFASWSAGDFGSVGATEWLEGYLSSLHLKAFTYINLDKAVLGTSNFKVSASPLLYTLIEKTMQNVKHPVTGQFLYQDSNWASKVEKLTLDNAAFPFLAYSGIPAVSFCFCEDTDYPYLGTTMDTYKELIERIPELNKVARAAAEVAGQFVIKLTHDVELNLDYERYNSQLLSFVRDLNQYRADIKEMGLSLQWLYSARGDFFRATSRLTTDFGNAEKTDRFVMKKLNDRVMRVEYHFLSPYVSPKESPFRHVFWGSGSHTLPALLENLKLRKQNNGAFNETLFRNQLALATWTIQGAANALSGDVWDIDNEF
Assay: SPR, His-captured TfR1
Protocol: Detailed binding kinetic analyses were performed to gain a better understanding of the relationship between affinity and brain penetration of the Clone C variants. Biacore surface plasmon resonance (SPR) analysis using immobilised mouse and human TfR-1 was performed for selected clones (Table 2). Binding kinetics of VNAR-Fcs was determined by surface plasmon resonance (Biacore T200, GE Healthcare). […] Sensorgrams were fitted and kinetic constants were determined using Biacore T200 Evaluation software. […]
recorded.endpoint: kon (M⁻¹ s⁻¹)

P: Clone C variant 6 VNAR-hFc (Fc fusion, not shown: a dimerising Fc or GST) ARVDQTPQTITKETGESLTINCVLRDSNCALSSTYWYRKKSGSTNEENISKGGRYVETVNSGSKSFSLRINDLTVEDSGTYRCNVVQWPSIQSPFWCDVYGDGTAVTVN
Q: Clone C variant 3 VNAR-hFc (Fc fusion, not shown: a dimerising Fc or GST) ARVDQTPQTITKETGESLTINCVLRDSNCALSSTYWYRKKSGSTNEENISKGGRYVETVNSGSKSFSLRINDLTVEDSGTYRCNVVQHPSYNNYFWCDVYGDGTAVTVN
Request: Field: lower recorded kon (choose P or Q ) Returns: label corresponding to the selected item.
Result: P
(P: 49500 M⁻¹ s⁻¹, Q: 381000 M⁻¹ s⁻¹)
